Where do these numbers come from? They come from PubChem BioAssay AID179.

- System: CEM cells HIV-1 protection, formazan growth assay
- assay_remarks: NCI AIDS Antiviral Assay
- applied_conditions: measured here: growth of uninfected CEM cells
pIC50: −log10 of the molar value.
observable: pIC50

Example compounds with recorded pIC50:
* Nc1ccc(-c2ccc(N)c(S(=O)(=O)O)c2)cc1S(=O)(=O)O | < 3.14
* COc1ccc(-c2sc(/N=C/c3ccc(N(C)CCC#N)cc3)c(C#N)c2C)cc1OC | 3.47
* CCOP(=O)(OCC)c1ccc(=O)[nH]c1-c1cccs1 | < 3.70
* N[C@@H](CCC(=O)NC(Cc1ccccc1)C(=O)NCP(=O)(O)O)C(=O)O (stereo partly drawn) | < 3.70
* CNC(c1ccncc1)C(NC)c1ccncc1 (stereo not drawn) | < 3.70

Recorded pIC50 (compound `COC(=O)c1cccc(COC(=O)c2cc(C(=CCC[C@H]3CC[C@@]4(C)[C@@H](CC[C@@H]5[C@@H]4CC[C@]4(C)[C@@H]([C@H](C)CCCC(C)C)CC[C@@H]54)C3)c3cc(Cl)c(OCc4cccc(C(=O)OC)c4)c(C(=O)OCc4cccc(C(=O)OC)c4)c3)cc(Cl)c2OCc2cccc(C(=O)OC)c2)c1` ): < 3.70

Recorded pIC50 (compound `Cc1c(NC(=S)Nc2ccc([N+](=O)[O-])cc2)c(=O)n(-c2ccccc2)n1C` ): < 3.70

Recorded pIC50 (compound `COc1ccc(CN(Cc2ccccc2)c2ncccn2)cc1` ): < 4.77

----------
- Test system: CEM cells HIV-1 protection, formazan growth assay
- assay_remarks: NCI AIDS Antiviral Assay
- applied_conditions: measured here: growth of uninfected CEM cells
Recorded IC50 values for a group of compounds are listed next.

Example compounds with recorded IC50:
* CC1=NC(=O)CC2=C1C(C)N(Cc1ccccc1)C2=O (stereo unspecified) | > 355 µM
* O=C1C2=C(c3ccccc31)C(c1ccc(Cl)cc1)NC(=S)N2 (stereo unspecified) | 29.5 µM

Recorded IC50 (compound `S=C(Cc1ccc2c(c1)Sc1ccccc1O2)N1CCOCC1` ): 27.5 µM

Recorded IC50 (compound `N#Cc1c(NC(=O)CN2CCOCC2)c(C(=O)Nc2ccccc2)n2c1CCC2` ): > 200 µM

Recorded IC50 (compound `O=C1c2ccccc2-c2nnc3c(c21)-c1ccccc1C3` ): 93.3 µM

----------
- System: CEM cells HIV-1 protection, formazan growth assay
- assay_remarks: NCI AIDS Antiviral Assay
observable: EC50

• CC(C)c1cccc(C(C)C)c1NC(=O)C(=O)CC(=O)CC(c1ccccc1)c1c(O)c2ccccc2oc1=O (stereo unspecified) = > 468 µM

Recorded EC50 (compound `CCOP(=O)(OCC)/C(C#N)=C/c1cc(O)ccc1O` ): > 832 µM

Recorded EC50 (compound [O-][N+]1=C2CCC/C(=N/O)C2(O)C2CCCCC21N1CCOCC1 (stereo unspecified) ): > 200 µM

----------
Recorded pIC50 values for a group of compounds are listed next.
- Test system: CEM cells HIV-1 protection, formazan growth assay
- assay_remarks: NCI AIDS Antiviral Assay
- applied_conditions: measured here: growth of uninfected CEM cells
pIC50: −log10 of the molar value.

Example compounds with recorded pIC50:
• N#Cc1c(-c2ccccc2)cc(-c2ccccc2)[nH]c1=O = < 4.44
• Cc1nn(C(=O)c2ccncc2)c2c1C(c1ccccc1)SC(N)=N2 (stereo not given) = < 4.00
• CCOc1ccc(N(CC(=O)N2CC(=O)Nc3cc(C)c(C)cc32)C(C)=O)cc1 = < 4.88
• Cn1cc2ccccc2c1-c1nc(F)nc(Oc2ccc3c(c2)CC[C@@H]2C3CC[C@@]3(C)C2CC[C@@H]3O)n1 (stereo not given in full) = < 5.26

Shift focus to the following entry.
Recorded pIC50 (compound `c1ccc(-c2cc(-c3ccccc3)nc(-c3ccncc3)c2)cc1` ): < 3.70
